Where do these numbers come from? They come from PubChem BioAssay (NCI).

tested on: LOX IMVI melanoma; assay: NCI tumour cell line growth inhibition, 48 h
readout: GI50

C[CH2][Sn]([CH2]C)([O]C(=O)c1ccccc1F)[O]C(=O)c1ccccc1F = 19.2 µM
COc1cc(Nc2ccnc(NCCNc3ccnc4cc(Cl)ccc34)n2)cc(OC)c1 = 1.47 µM
c1cc[n+](C2c3ccccc3C([n+]3ccccc3)c3ccccc32)cc1 (stereo not given) = 15.8 µM
Cc1ccc(S(=O)(=O)c2ccccc2)cc1 = 5.05 µM

Query compound follows.
Report GI50 for COc1cc(C2C3=C(COC3=O)N(CCO)c3cc4c(cc32)OCO4)cc(OC)c1OC (stereo not given) please.
0.976 µM

###

Assignment: determine reported TGI for the given compounds.
tested on: CCRF-CEM leukemia; assay: NCI tumour cell line growth inhibition, 48 h

// worked examples, TGI included
COc1cc(-c2nccn2-c2ccc3ccccc3c2)cc(OC)c1OC = 32.5 µM
COc1ccc(C(=O)N2c3ccccc3N(C)n3cccc3C2CC(=O)O)cc1 (stereo not given) = > 100 µM
[N-]=[N+]=Nc1cc(=O)n(-c2ccccc2)c2ccccc12 = > 100 µM
CC(C)(C)OC(=O)NCCC1SC2C=CC1C2 (stereo not given) = > 100 µM
O=S(=O)(c1ccc(Cl)cc1)c1ccccc1C1=NCCN1 = > 100 µM
COC(=O)C1C(OS(=O)(=O)O)CCC2CN3CCc4c([nH]c5ccccc45)C3CC21 (stereo not given) = > 100 µM
COc1cc(C(c2c(O)c3ccccc3oc2=O)c2c(O)c3ccccc3oc2=O)ccc1O = 89.6 µM
Cc1nnc2n1-c1ccccc1-c1[nH]c3ccccc3c1C2 = > 100 µM
O=c1[nH]cnc2c1sc(=S)n2-c1ccccc1 = > 100 µM
Clc1ccc2c(N3CCN(c4ccnc(NC5CCCCC5)n4)CC3)ccnc2c1 = 6.07 µM

I'm hoping you can list TGI for every compound here, please.
1. CCOC(=O)C1=c2[nH]c3cccc4cccc(c43)n2C(=O)CC1
2. C=CC(=O)C#CC#CC/C=C\CCCCCCC
3. CC(C)(C)/C(O)=C\c1nc2ccc(C(F)(F)F)cc2[nH]c1=O
4. CCNCCCNc1c2ccccc2nc2ccccc12
5. O=C(O)c1ccc(C(=O)Nc2cccc3ccccc23)c(C(=O)O)c1

1: > 100 µM; 2: > 17.3 µM; 3: > 100 µM; 4: 10.1 µM; 5: > 100 µM

###

Assignment: determine reported TGI for the given compounds.
tested on: MDA-MB-435; test: NCI tumour cell line growth inhibition, 48 h

// worked examples, TGI included
COC(=O)C(Cc1c[nH]c2ccccc12)NP(=O)(O)OCC1OC(n2ccc(N)nc2=O)C(O)C1O (stereo not drawn) = > 100 µM
Cc1cc(S(=O)(=O)n2cc[nH]c2=O)c(SCCCN(C)C)cc1Cl = > 100 µM

Query compound follows.
Report TGI for Nc1ccc(S(=O)(=O)c2ccc(N)cc2)cc1 please.
> 100 µM

###

Assignment: determine reported GI50 for the given compounds.
system: ACHN renal; assay: NCI tumour cell line growth inhibition, 48 h

// worked examples, GI50 included
C[C@]12CC[C@@H]3c4ccc(O)cc4CC[C@H]3[C@@H]1CC[C@@H]2NS(=O)(=O)c1ccc(Cl)cc1 = 3.5 µM
COc1ccc(/C(C)=C(\c2ccc(Cl)cc2)c2ccc(OCCN3CCCCC3)cc2)cc1 = 5.13 µM
CC1=C(C(=O)Nc2ccc(F)c(Cl)c2)C(c2cccc(Cl)c2)NC(=S)N1 (stereo unspecified) = 3.61 µM
O=C(c1ccco1)c1nc2ccc(Cl)cc2[n+]([O-])c1C(F)(F)F = > 100 µM
OCCCCC#Cc1ccccc1C#Cc1ccccn1 = 31.8 µM

Query compound follows.
Report GI50 for COc1cccc(C2=C(c3cn(C)c4ccc(Cl)cc34)C(=O)NC2=O)c1 please.
6.65 µM

###

tested on: DU-145 prostate; experiment: NCI tumour cell line growth inhibition, 48 h
Assignment: determine reported TGI for the given molecules.

O=C(Cc1n[nH]c(=O)c2ccccc12)OCc1c(Cl)cccc1Cl = > 100 µM
CN(CCCN=C=S)CCCN1c2ccccc2CCc2ccccc21 = 3.22 µM
C[C@]12CC[C@@H]3c4ccc(O)cc4CC[C@H]3[C@@H]1CC[C@@H]2NS(=O)(=O)c1ccc(Cl)cc1 = 21.6 µM

I'm hoping you can list TGI for every molecule here, please.
1. NC(N)=NN=C(c1ccccc1)c1ccccc1
2. Cc1ccc(C(=O)N/N=C(\N=Nc2cccc([N+](=O)[O-])c2)c2ccc(N(C)C)cc2)cc1
3. COC(=O)[C@]12CC[C@H]3CN(C(=O)OCc4ccccc4)[C@H]([C@H]31)[C@H](c1ccccc1)N2
4. COc1cccc2[nH]c3c4c(c5c(c3c12)C(=O)N(CN1CCN(C)CC1)C5=O)CCC4
5. COc1ccc(/C=C2/SC(c3ccc(Cl)cc3)N(NC(=O)CCCCCCCCC(=O)NN3C(=O)/C(=C\c4ccc(OC)c(OC)c4)SC3c3ccc(Cl)cc3)C2=O)cc1OC (configuration not stated)
6. NC1=NC(=O)[C@H](Cc2c[nH]c3ccccc23)N1C(=O)OCc1ccccc1
7. COC(=O)C(Cc1c[nH]c2ccccc12)NP(=O)(O)OCC1OC(n2ccc(N)nc2=O)C(O)C1O (configuration not stated)

["> 100 µM", "85.5 µM", "> 100 µM", "21.6 µM", "> 100 µM", "> 100 µM", "> 100 µM"]

I'm hoping you can list TGI for every molecule here, please.
1. Nc1cccc2nnccc12
2. Cc1cc(OCC(=O)O)c(Cl)cc1Cl
3. Cc1cc2c(c(S(=O)(=O)c3ccc(Cl)cc3[N+](=O)[O-])c1)NCCC2
4. CSc1nc(-c2cc3ccccc3o2)cc(-c2ccc(Cl)cc2)c1C#N
5. C=CC(=O)N1CCN(CCCn2c(=O)c(-c3c(Cl)c(OC)cc(OC)c3Cl)cc3cnc(NC)nc32)CC1
6. CC1(C)Cc2c(cnn2-c2ccc(C(F)(F)F)cc2)-c2nc(-c3ccc(O)cc3)[nH]c21

> 100 µM
> 100 µM
> 100 µM
> 100 µM
17.7 µM
31.6 µM

I'm hoping you can list TGI for every molecule here, please.
1. COC(=O)C1C(OS(=O)(=O)O)CCC2CN3CCc4c([nH]c5ccccc45)C3CC21 (configuration not stated)
2. COc1cc(C(=O)O)ccc1OS(=O)(=O)O
3. O=c1cc(-c2ccccc2)nc(-n2[nH]c3c(c2=O)CCCC3)[nH]1
4. CC(C)(C)OC(=O)C1CCC/C1=N/Nc1ccc([N+](=O)[O-])cc1[N+](=O)[O-] (configuration not stated)
5. C=C(CBr)CCCOCc1ccccc1
6. CC#CC(O)(C(=O)OC1CCC2CCC1N2C)C1CCCC1 (configuration not stated)

> 100 µM
> 100 µM
3.97 µM
> 100 µM
> 100 µM
> 100 µM

###

Assignment: determine reported TGI for the given compounds.
tested on: SNB-78 CNS; assay: NCI tumour cell line growth inhibition, 48 h

// worked examples, TGI included
CCC[CH2][Sn]1([CH2]CCC)[O]CC(CN2CCCCC2)[O]1 (stereo unspecified) = 0.761 µM
O=C(CC1(O)C(=O)Nc2c(Cl)cc(Cl)cc21)c1ccc(Br)cc1 (stereo unspecified) = 47 µM
Cc1ccc(-n2c(O)c(C=N)c(=O)n(-c3ccc(C)cc3)c2=O)cc1 = > 100 µM
Clc1ccc(-c2nnc3c4nnc(-c5ccc(Cl)cc5Cl)n4c4ccccc4n23)c(Cl)c1 = > 100 µM

I'm hoping you can list TGI for every compound here, please.
1. NC(N)=NS(=O)(=O)c1ccc(NC(=O)c2cccc3c(=O)c4ccccc4[nH]c23)cc1
2. COc1ccc(C(=O)N2c3ccccc3N(C)n3cccc3C2CC(=O)O)cc1 (stereo unspecified)

1: > 100 µM; 2: > 100 µM

###

tested on: OVCAR-8 ovarian; assay: NCI tumour cell line growth inhibition, 48 h
readout: TGI

// worked examples, TGI included
O=C(Cc1n[nH]c(=O)c2ccccc12)OCc1c(Cl)cccc1Cl = > 100 µM
O=C(Cc1cc[n+]([O-])cc1)C(=O)Nc1cc(Cl)c(Cl)cc1Cl = > 100 µM

Query molecule follows.
Observed TGI on OVCAR-8 ovarian for O=C(c1ccco1)c1nc2ccc(Cl)cc2[n+]([O-])c1C(F)(F)F , please.
> 100 µM

###

system: HS 578T breast; assay: NCI tumour cell line growth inhibition, 48 h
readout: TGI (µM)
Numbers only, in µM.

// worked examples, TGI included
O=C(C1OC1c1ccc(F)cc1)C12CC3CC(CC(C3)C1)C2 (stereo not given) = 60.1
COC(=O)c1oc([N+](=O)[O-])c(Cl)c1Cl = 29.3
COc1ccc(/C(C)=C(\c2ccc(Cl)cc2)c2ccc(OCCN3CCCCC3)cc2)cc1 = 13.3

I'm hoping you can list TGI for every compound here, please.
1. CC1CCC2C(C)(C)CC3(C)CCC1C23O (stereo not given)
2. O=C1/C(=C\c2cccc(Oc3ccccc3)c2)SC(c2ccccc2)N1c1ccccc1Cl (stereo not given)
3. C=C1CC(C)(COc2ccc3c(C)c(C)c(=O)oc3c2C)OC1=O (stereo not given)

[30.3, 60.2, 15.1]
